molecular target: Recombinant human his-tagged IGF 1R extracellular domain protein (human) (UniProt P08069); assay: SPR, captured IgG, IGF-1R ECD-his analyte, dissociation pH 6
Recorded kon for the following binders
METRIC NAME: kon (M⁻¹ s⁻¹)

>  <BINDER>
VRDN-02562 (antibody, V domains shown) VH: EVQLVQSGGGLVKPGGSLRLSCAASGFTFSSFAMHWVRQAPGKGLEWISVIHTRGATYYADSVKGRFTISRDNAKNSLYLQMNSLRAEDTAVYYCHRLGNFYYGMDVWGQGTTVTVSS VL: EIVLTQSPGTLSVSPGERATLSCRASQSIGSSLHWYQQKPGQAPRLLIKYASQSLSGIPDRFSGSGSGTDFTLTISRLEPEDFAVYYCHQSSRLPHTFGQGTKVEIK

>  <SCALE UNIT>
M⁻¹ s⁻¹

>  <DATA VALUE>
135000

$$$$
>  <BINDER>
VRDN-02538 (antibody, V domains shown) VH: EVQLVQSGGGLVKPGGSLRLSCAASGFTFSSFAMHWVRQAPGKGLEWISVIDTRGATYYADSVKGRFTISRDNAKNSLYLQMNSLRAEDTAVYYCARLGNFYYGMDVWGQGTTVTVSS VL: EIVLTQSPGTLSVSPGERATLSCRASQSIGSSLHWYQQKPGQAPRLLIHYASQSLSGIPDRFSGSGSGTDFTLTISRLEPEDFAVYYCHQSSRLPHTFGQGTKVEIK

>  <SCALE UNIT>
M⁻¹ s⁻¹

>  <DATA VALUE>
21600

$$$$
>  <BINDER>
VRDN-02541 (antibody, V domains shown) VH: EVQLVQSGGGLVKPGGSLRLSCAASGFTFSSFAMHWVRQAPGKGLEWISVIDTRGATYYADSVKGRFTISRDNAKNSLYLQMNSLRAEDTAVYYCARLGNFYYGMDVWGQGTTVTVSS VL: EIVLTQSPGTLSVSPGERATLSCRASQSIGSSLHWYQQKPGQAPRLLIKYAHQSLSGIPDRFSGSGSGTDFTLTISRLEPEDFAVYYCHQSSRLPHTFGQGTKVEIK

>  <SCALE UNIT>
M⁻¹ s⁻¹

>  <DATA VALUE>
35700

$$$$
>  <BINDER>
VRDN-02524 (antibody, V domains shown) VH: EVQLVQSGGGLVKPGGSLRLSCAASGFTFSSFAMHWVRQAPGKGLEWISVIDTRGATYYADSVKGRFTISRDNAKNSLYLQMNSLRAEDTAVYYCARLGNFYYHMDVWGQGTTVTVSS VL: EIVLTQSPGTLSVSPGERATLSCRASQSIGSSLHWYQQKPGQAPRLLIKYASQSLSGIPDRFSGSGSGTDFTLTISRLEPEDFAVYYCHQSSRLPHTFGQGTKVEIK

>  <SCALE UNIT>
M⁻¹ s⁻¹

>  <DATA VALUE>
38300

$$$$
>  <BINDER>
VRDN-02567 (antibody, V domains shown) VH: EVQLVQSGGGLVKPGGSLRLSCAASGFTFSSFAMHWVRQAPGKGLEWISVIDTRGATYYADSVKGRFTISRDNAKNSLYLQMNSLRAEDTAVYYCARLGNFYYHHDVWGQGTTVTVSS VL: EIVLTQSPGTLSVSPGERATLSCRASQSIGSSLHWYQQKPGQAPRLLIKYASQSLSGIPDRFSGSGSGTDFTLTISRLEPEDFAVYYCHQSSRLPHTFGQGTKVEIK

>  <SCALE UNIT>
M⁻¹ s⁻¹

>  <DATA VALUE>
105000

$$$$
>  <BINDER>
VRDN-02551 (antibody, V domains shown) VH: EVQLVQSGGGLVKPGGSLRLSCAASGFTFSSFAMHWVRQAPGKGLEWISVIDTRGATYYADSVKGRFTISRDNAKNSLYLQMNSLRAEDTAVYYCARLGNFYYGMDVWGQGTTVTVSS VL: EIVLTQSPGTLSVSPGERATLSCRASQSIGSSLHWYQQKPGQAPRLLIKYASQSLSGIPDRFSGSGSGTDFTLTISRLEPEDFAVYYCHQSSRLHHTFGQGTKVEIK

>  <SCALE UNIT>
M⁻¹ s⁻¹

>  <DATA VALUE>
28700

$$$$
>  <BINDER>
VRDN-02502 (antibody, V domains shown) VH: EVQLVQSGGGLVKPGGSLRLSCAASGHTFSSFAMHWVRQAPGKGLEWISVIDTRGATYYADSVKGRFTISRDNAKNSLYLQMNSLRAEDTAVYYCARLGNFYYGMDVWGQGTTVTVSS VL: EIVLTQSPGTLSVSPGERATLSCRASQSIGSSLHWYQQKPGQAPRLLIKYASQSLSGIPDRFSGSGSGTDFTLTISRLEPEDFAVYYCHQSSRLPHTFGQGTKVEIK

>  <SCALE UNIT>
M⁻¹ s⁻¹

>  <DATA VALUE>
26700

$$$$
